# tested system: IKZF1 (Homo sapiens (Human), UniProt Q13422+Q96SW2)
# Sequence (Q13422 whole entry): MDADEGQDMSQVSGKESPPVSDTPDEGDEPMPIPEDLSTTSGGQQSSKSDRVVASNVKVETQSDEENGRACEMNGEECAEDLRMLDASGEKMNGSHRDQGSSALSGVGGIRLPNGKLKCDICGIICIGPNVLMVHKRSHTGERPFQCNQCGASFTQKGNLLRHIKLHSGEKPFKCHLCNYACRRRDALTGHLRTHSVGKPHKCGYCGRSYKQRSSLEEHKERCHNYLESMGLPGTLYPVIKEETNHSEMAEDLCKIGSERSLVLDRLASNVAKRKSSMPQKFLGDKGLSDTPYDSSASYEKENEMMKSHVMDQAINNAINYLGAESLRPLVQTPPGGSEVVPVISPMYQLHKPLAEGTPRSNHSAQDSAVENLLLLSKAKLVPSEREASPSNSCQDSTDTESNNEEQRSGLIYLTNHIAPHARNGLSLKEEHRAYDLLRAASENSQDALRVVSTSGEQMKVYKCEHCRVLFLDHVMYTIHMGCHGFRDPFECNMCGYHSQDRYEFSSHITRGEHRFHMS
# Sequence (Q96SW2 whole entry): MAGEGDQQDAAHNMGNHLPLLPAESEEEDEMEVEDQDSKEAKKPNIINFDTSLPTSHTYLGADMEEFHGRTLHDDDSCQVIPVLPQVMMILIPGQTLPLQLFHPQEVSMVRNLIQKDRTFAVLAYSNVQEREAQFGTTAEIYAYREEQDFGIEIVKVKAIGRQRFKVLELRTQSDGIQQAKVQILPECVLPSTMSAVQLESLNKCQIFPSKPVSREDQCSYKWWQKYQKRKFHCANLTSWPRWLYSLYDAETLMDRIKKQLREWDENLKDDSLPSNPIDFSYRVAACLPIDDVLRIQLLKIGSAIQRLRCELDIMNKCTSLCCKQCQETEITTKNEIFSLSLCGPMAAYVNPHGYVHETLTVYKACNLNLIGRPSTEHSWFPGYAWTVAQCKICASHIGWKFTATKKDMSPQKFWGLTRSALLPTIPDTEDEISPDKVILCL
# Sequence (Q16531 2-1140 partner): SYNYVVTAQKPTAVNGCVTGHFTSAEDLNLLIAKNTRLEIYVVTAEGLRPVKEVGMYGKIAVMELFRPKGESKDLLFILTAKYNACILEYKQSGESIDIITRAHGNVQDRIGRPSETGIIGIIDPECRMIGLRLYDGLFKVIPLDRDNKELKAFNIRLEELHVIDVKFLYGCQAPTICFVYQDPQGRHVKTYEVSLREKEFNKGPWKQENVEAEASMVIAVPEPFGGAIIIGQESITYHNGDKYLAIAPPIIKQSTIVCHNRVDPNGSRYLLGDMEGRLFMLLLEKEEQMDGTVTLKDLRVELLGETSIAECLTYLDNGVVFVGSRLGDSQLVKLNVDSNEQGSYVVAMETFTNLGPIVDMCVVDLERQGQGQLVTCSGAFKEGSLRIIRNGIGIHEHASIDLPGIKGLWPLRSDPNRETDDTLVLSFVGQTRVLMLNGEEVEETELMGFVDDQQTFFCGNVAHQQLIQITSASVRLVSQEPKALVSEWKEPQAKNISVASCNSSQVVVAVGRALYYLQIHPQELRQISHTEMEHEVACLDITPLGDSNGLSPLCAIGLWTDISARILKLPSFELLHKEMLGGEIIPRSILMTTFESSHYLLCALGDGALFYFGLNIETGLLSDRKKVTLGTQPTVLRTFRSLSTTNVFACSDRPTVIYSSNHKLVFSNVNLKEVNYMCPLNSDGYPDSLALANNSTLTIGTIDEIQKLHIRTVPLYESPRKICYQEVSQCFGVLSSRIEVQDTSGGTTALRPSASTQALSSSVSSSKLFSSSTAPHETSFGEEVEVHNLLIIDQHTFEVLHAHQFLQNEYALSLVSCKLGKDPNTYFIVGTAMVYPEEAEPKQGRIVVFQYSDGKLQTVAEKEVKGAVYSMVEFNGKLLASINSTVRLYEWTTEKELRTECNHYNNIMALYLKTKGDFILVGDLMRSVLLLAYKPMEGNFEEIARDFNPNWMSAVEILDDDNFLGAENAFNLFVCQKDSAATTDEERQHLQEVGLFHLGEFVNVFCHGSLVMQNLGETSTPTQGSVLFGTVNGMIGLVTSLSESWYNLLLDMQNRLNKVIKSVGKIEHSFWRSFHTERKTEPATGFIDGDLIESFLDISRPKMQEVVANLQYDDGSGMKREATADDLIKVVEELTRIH
# experiment: In vitro IKZF1 HiBit Assay (HEK293T Flp-in-HiBiT-IKZF1 stable cell line)
# Format: cell-based
# condition context: HEK293T Flp-in-HiBiT-IKZF1 stable cell line, 6 hrs incubation; read-out: IKZF1 HiBit DC50
measured endpoint: DC50

Worked examples follow.
molecule	tested system	DC50
O=C1CCC(N2Cc3cc(-c4cc(CN5CCCC5)c5cn(C6COC6)nc5n4)ccc3C2=O)C(=O)N1 (stereo not shown)	IKZF1 (Homo sapiens (Human), UniProt Q13422+Q96SW2)	> 10 µM
CC1c2cc(-c3cc(CN4CCCC4)c4ccn(C5COC5)c4n3)ccc2C(=O)N1C1CCC(=O)NC1=O (stereo not shown)	IKZF1 (Homo sapiens (Human), UniProt Q13422+Q96SW2)	> 10 µM
Cn1ccc2c(CN3CCOCC3)cc(-c3ccc4c(c3)CN(C3CCC(=O)NC3=O)C4=O)nc21 (stereo not shown)	IKZF1 (Homo sapiens (Human), UniProt Q13422+Q96SW2)	> 10 µM
O=C1CCC(N2Cc3cc(-c4cc(CN5CCCC5)c5nccc(OC6CC6)c5n4)ccc3C2=O)C(=O)N1 (stereo not shown)	IKZF1 (Homo sapiens (Human), UniProt Q13422+Q96SW2)	> 10 µM
O=C1CCC(N2Cc3c(ccc(-c4cc(CN5CCC6(CC5)COC6)c5ccn(C6CS(=O)(=O)C6)c5n4)c3F)C2=O)C(=O)N1 (stereo not shown)	IKZF1 (Homo sapiens (Human), UniProt Q13422+Q96SW2)	0.01 to 0.1 µM
CC#CCn1ccc2c(CN3CCCC3)cc(-c3ccc4c(c3)CN(C3CCC(=O)NC3=O)C4=O)nc21 (stereo not shown)	IKZF1 (Homo sapiens (Human), UniProt Q13422+Q96SW2)	> 10 µM
CC(C)Oc1ccnc2c(CN3CCCC3)cc(-c3ccc4c(c3)CN(C3CCC(=O)NC3=O)C4=O)nc12 (stereo not shown)	IKZF1 (Homo sapiens (Human), UniProt Q13422+Q96SW2)	> 10 µM
O=C1CCC(N2Cc3cc(-c4cc(CN5CCCC5)c5cn[nH]c5n4)ccc3C2=O)C(=O)N1 (stereo not shown)	IKZF1 (Homo sapiens (Human), UniProt Q13422+Q96SW2)	1 to 10 µM
O=C1CCC(N2Cc3cc(-c4cc(CN5CCCC5)c5c(ccn5CCO)n4)ccc3C2=O)C(=O)N1 (stereo not shown)	IKZF1 (Homo sapiens (Human), UniProt Q13422+Q96SW2)	> 10 µM
O=C1CCC(N2Cc3cc(-c4cc(CN5CCCC5)c5c(C(F)(F)F)n[nH]c5n4)ccc3C2=O)C(=O)N1 (stereo not shown)	IKZF1 (Homo sapiens (Human), UniProt Q13422+Q96SW2)	> 10 µM

[ask] What does the data say about its DC50? Entry: Cn1ccc2c(CN3CCC3c3ccccc3)cc(-c3ccc4c(c3)CN(C3CCC(=O)NC3=O)C4=O)nc21 (stereo not shown)
[reply] > 10 µM

[ask] What does the data say about its DC50? Entry: Cn1cc2nc(-c3ccc4c(c3)CN(C3CCC(=O)NC3=O)C4=O)cc(CN3CCCC3)c2n1 (stereo not shown)
[reply] 0.01 to 0.1 µM

[ask] What does the data say about its DC50? Entry: CC(C)CC1CN(Cc2cc(-c3ccc4c(c3)CN(C3CCC(=O)NC3=O)C4=O)nc3[nH]ccc23)CC1O (stereo not shown)
[reply] 0.1 to 1 µM

====

# tested system: IKZF1 (Homo sapiens (Human), UniProt Q13422+Q96SW2)
# experiment: In vitro IKZF1 HiBit Assay (HEK293T Flp-in-HiBiT-IKZF1 stable cell line)
# Type: cell-based
# condition context: HEK-293T; HEK293T Flp-in-HiBiT-IKZF1 stable cell line, 6 hrs incubation; read-out: IKZF1 HiBit Dmax (%)
Counter-ions that a name gives are not always drawn.
Here, each record is paired with measured Dmax data.

Worked examples follow.
molecule	tested system	result
Cn1ccc2c(CN3CCC4(CC3)COC4)cc(-c3ccc4c(c3)CN(C3CCC(=O)NC3=O)C4=O)nc21 (stereo not shown)	IKZF1 (Homo sapiens (Human), UniProt Q13422+Q96SW2)	20 to 40%
CCn1ccc2nc(-c3ccc4c(c3)CN(C3CCC(=O)NC3=O)C4=O)cc(CN3CCC3)c21 (stereo not shown)	IKZF1 (Homo sapiens (Human), UniProt Q13422+Q96SW2)	20 to 40%
CN1CC(n2ccc3c(CN4CCCC4)cc(-c4ccc5c(c4)CN(C4CCC(=O)NC4=O)C5=O)nc32)C1 (stereo not shown)	IKZF1 (Homo sapiens (Human), UniProt Q13422+Q96SW2)	40 to 60%

[ask] Tell me reported Dmax for O=C1CCC(N2Cc3cc(-c4cc(CN5CCCC5)c5ccn(C6CCOCC6)c5n4)ccc3C2=O)C(=O)N1 (stereo not shown) , tested with IKZF1 (Homo sapiens (Human), UniProt Q13422+Q96SW2).
[reply] < 20%

[ask] Tell me reported Dmax for O=C1CCC(N2Cc3cc(-c4cc(CN5CCCC5C(F)F)c5ccn(C6COC6)c5n4)ccc3C2=O)C(=O)N1 (stereo not shown) , tested with IKZF1 (Homo sapiens (Human), UniProt Q13422+Q96SW2).
[reply] < 20%

[ask] Tell me reported Dmax for COC1CCN(Cc2cc(-c3ccc4c(c3F)CN(C3CCC(=O)NC3=O)C4=O)nc3c2ccn3C2CS(=O)(=O)C2)CC1 (stereo not shown) [Example 266, formate] , tested with IKZF1 (Homo sapiens (Human), UniProt Q13422+Q96SW2).
[reply] 40 to 60%

[ask] Tell me reported Dmax for Cn1ccc2c(N3CCCC3)cc(-c3ccc4c(c3)CN(C3CCC(=O)NC3=O)C4=O)nc21 (stereo not shown) , tested with IKZF1 (Homo sapiens (Human), UniProt Q13422+Q96SW2).
[reply] < 20%

====

Here, each record is paired with measured Dmax data.
# tested system: IKZF1 (Homo sapiens (Human), UniProt Q13422+Q96SW2)
# experiment: In vitro IKZF1 HiBit Assay (HEK293T Flp-in-HiBiT-IKZF1 stable cell line)
# Assay type: cell-based
# condition context: HEK-293T; HEK293T Flp-in-HiBiT-IKZF1 stable cell line, 6 hrs incubation; read-out: IKZF1 HiBit Dmax (%)

Worked examples follow.
compound	Dmax
O=C1CCC(N2Cc3cc(-c4cc(CN5CCCC5)c5cn[nH]c5n4)ccc3C2=O)C(=O)N1 (stereo not shown) [Example 105]	20 to 40%
CC1CCN(Cc2cc(-c3ccc4c(c3)CN(C3CCC(=O)NC3=O)C4=O)nc3c2ccn3C)CC1 (stereo not shown) [Example 81]	40 to 60%
O=C1CCC(N2Cc3cc(-c4cc(CN5CCCC5)c5[nH]nc(NC6COC6)c5n4)ccc3C2=O)C(=O)N1 (stereo not shown) [Example 204]	< 20%
Nc1nn(C2CC2)c2c(CN3CCCC3)cc(-c3ccc4c(c3)CN(C3CCC(=O)NC3=O)C4=O)nc12 (stereo not shown) [Example 210]	40 to 60%
Cn1ccc2c(Cn3cnc4ccccc43)cc(-c3ccc4c(c3)CN(C3CCC(=O)NC3=O)C4=O)nc21 (stereo not shown) [Example 97]	< 20%
Cn1ccc2c(CN3CCC3)cc(-c3ccc4c(c3)CN(C3CCC(=O)NC3=O)C4=O)nc21 (stereo not shown) [Example 56]	20 to 40%

[ask] Tell me reported Dmax for O=C1CCC(N2Cc3cc(-c4cc(CN5CCCC5)c5ccn(C6CNC6)c5n4)ccc3C2=O)C(=O)N1 (stereo not shown) [Example 168] , tested with IKZF1 (Homo sapiens (Human), UniProt Q13422+Q96SW2).
[reply] 20 to 40%

====

# tested system: IKZF1 (Homo sapiens (Human), UniProt Q13422+Q96SW2)
# experiment: In vitro IKZF1 HiBit Assay (HEK293T Flp-in-HiBiT-IKZF1 stable cell line)
# Type: cell-based
# condition context: HEK293T Flp-in-HiBiT-IKZF1 stable cell line, 6 hrs incubation; read-out: IKZF1 HiBit DC50
measured endpoint: DC50

Worked examples follow.
compound	result
O=C1CCC(N2Cc3cc(-c4cc(CN5CCCC5)c5ccn(C6COC6)c5n4)ccc3C2=O)C(=O)N1 (centres unmarked)	10 to 100 nM
CCc1c(-c2ccc3c(c2)CN(C2CCC(=O)NC2=O)C3=O)nc2c(ccn2C2COC2)c1CN1CCCC1 (centres unmarked)	> 10000 nM
N#CCn1ccc2c(CN3CCCC3)cc(-c3ccc4c(c3)CN(C3CCC(=O)NC3=O)C4=O)nc21 (centres unmarked)	> 10000 nM
CC(C)n1ccc2nc(-c3ccc4c(c3)CN(C3CCC(=O)NC3=O)C4=O)cc(CN3CCCC3)c21 (centres unmarked)	100 to 1000 nM
CN(C)CC1CCN(Cc2cc(-c3ccc4c(c3)CN(C3CCC(=O)NC3=O)C4=O)nc3[nH]ccc23)C1 (centres unmarked)	10 to 100 nM

[ask] What does the data say about its DC50? Entry: O=C1CCC(N2Cc3cc(-c4cc(CN5CCCC5)c5ccn(C6CS(=O)(=O)C6)c5n4)ccc3C2=O)C(=O)N1 (centres unmarked)
[reply] 10 to 100 nM

[ask] What does the data say about its DC50? Entry: O=C1CCC(N2Cc3cc(-c4cc(CN5CCC6(CC5)COC6)c5ccn(C6COC6)c5n4)ccc3C2=O)C(=O)N1 (centres unmarked)
[reply] > 10000 nM

[ask] What does the data say about its DC50? Entry: Nc1nn(C2COC2)c2c(CN3CCCC3)cc(-c3ccc4c(c3)CN(C3CCC(=O)NC3=O)C4=O)nc12 (centres unmarked)
[reply] 1000 to 10000 nM

[ask] What does the data say about its DC50? Entry: O=C1CCC(N2Cc3cc(-c4cc(CN5CCCC5CF)c5ccn(C6COC6)c5n4)ccc3C2=O)C(=O)N1 (centres unmarked)
[reply] 1 to 10 nM

[ask] What does the data say about its DC50? Entry: Cn1nc(N)c2nc(-c3ccc4c(c3)CN(C3CCC(=O)NC3=O)C4=O)cc(CN3CCCC3)c21 (centres unmarked)
[reply] 10 to 100 nM

[ask] What does the data say about its DC50? Entry: COC1CC(n2ccc3c(CN4CCCC4)cc(-c4ccc5c(c4)CN(C4CCC(=O)NC4=O)C5=O)nc32)C1 (centres unmarked)
[reply] 10 to 100 nM

[ask] What does the data say about its DC50? Entry: O=C1CCC(N2Cc3cc(-c4cc(CN5CCCC5)c5ncn(C6COC6)c5n4)ccc3C2=O)C(=O)N1 (centres unmarked)
[reply] > 10000 nM

[ask] What does the data say about its DC50? Entry: Cn1ccc2c(CN3CCN(S(C)(=O)=O)CC3)cc(-c3ccc4c(c3)CN(C3CCC(=O)NC3=O)C4=O)nc21 (centres unmarked)
[reply] > 10000 nM

[ask] What does the data say about its DC50? Entry: CC(C)Nc1n[nH]c2c(CN3CCCC3)cc(-c3ccc4c(c3)CN(C3CCC(=O)NC3=O)C4=O)nc12 (centres unmarked)
[reply] 10 to 100 nM

[ask] What does the data say about its DC50? Entry: Cn1ccc2c(CN3CCC(O)CC3)cc(-c3ccc4c(c3)CN(C3CCC(=O)NC3=O)C4=O)nc21 (centres unmarked)
[reply] > 10000 nM

[ask] What does the data say about its DC50? Entry: CC(c1cc(-c2ccc3c(c2)CN(C2CCC(=O)NC2=O)C3=O)nc2c1ccn2C)N1CCCC1 (centres unmarked)
[reply] > 10000 nM

[ask] What does the data say about its DC50? Entry: O=C1CCC(N2Cc3cc(-c4nc(CN5CCCC5)c5ccn(C6CS(=O)(=O)C6)c5n4)ccc3C2=O)C(=O)N1 (centres unmarked)
[reply] > 10000 nM

[ask] What does the data say about its DC50? Entry: O=C1CCC(N2Cc3c(ccc(-c4cc(CN5CCCC5)c5[nH]nc(NC6CCC6)c5n4)c3F)C2=O)C(=O)N1 (centres unmarked)
[reply] 10 to 100 nM
